- STUDY_SYSTEM: Diacylglycerol kinase alpha (Homo sapiens, UniProt P23743)
- Sequence (P23743 whole entry): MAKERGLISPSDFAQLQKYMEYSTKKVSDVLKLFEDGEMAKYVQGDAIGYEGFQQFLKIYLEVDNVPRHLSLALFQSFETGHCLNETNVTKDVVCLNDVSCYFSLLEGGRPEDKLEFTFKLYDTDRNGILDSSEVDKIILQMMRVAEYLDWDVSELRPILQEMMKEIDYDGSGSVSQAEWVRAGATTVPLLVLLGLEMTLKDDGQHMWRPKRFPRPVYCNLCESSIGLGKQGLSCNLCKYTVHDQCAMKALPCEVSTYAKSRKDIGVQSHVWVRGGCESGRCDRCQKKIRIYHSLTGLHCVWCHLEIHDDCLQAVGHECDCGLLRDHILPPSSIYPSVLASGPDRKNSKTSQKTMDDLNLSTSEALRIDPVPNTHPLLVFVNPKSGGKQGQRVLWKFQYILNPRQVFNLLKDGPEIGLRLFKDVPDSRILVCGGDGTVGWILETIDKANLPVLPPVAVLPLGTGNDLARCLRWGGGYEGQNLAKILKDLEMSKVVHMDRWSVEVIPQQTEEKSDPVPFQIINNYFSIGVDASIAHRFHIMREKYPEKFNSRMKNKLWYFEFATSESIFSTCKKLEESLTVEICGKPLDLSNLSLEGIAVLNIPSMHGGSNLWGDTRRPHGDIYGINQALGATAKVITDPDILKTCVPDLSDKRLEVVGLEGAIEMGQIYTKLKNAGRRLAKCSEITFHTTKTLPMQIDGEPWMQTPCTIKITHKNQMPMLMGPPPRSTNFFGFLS
MEASUREMENT_NAME: IC50 (nM)
Field format: number, assumed nM, no unit text.

# IC50 of Cn1c(=O)cc(N2CCC(Oc3ccc(C(C)(C)C)cc3)CC2)c2cc(C#N)ccc21 = 770

----------
Recorded IC50 values (Diacylglycerol kinase zeta (Homo sapiens, UniProt Q13574)) are given below.
Express the result in µM but write the number alone.

IC50 on Diacylglycerol kinase zeta (Homo sapiens, UniProt Q13574) for CCO[C@H]1CN(c2cc(=O)n(C)c3ccc(C#N)nc23)CC[C@@H]1Oc1ccc(OC(C)C)cn1 (relative stereo) is 0.42

IC50 of Cn1c(=O)cc(N2CCC(Oc3ccc(C(C)(C)C)cc3)CC2)c2cc(C#N)ccc21 , assay on Diacylglycerol kinase zeta (Homo sapiens, UniProt Q13574), is 2
